experiment: Quantitative highthroughput screen to assess conditional lethalithy of NOMO1 cells grown in RPMI1640 with untreated serum (RPMI+s) (AID 1963876); conditions: NOMO1 AML cells in RPMI+serum, CellTiter-Glo viability, 48 h; series mostly up to 45.8 µM; further: nearly all actives have a fitted effect of over 35% in size;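 on viability: 100% = DMSO wells and 0% = empty wells without cells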
Inconclusive results are not listed. The source made the active and inactive calls. The call rests on the fitted dose curve; in most records, active means well fitted cell-killing curve with a large enough effect; inconclusive means small, poorly fitted or top-dose-only effect; inactive means flat fitted curve, though single readings scatter.
Respond with a class label; see 1.0 = active, 0.0 = inactive

A selection of reference data follows.
>  <MOLECULE>
COC1=C[C@@H]2[C@@H]3Cc4ccc(OC)c(O)c4[C@]2(CCN3C)CC1=O

>  <CATEGORY>
0.0

$$$$
>  <MOLECULE>
C[C@](O)(COc1ccc(C#N)cc1)C(=O)Nc1ccc(C#N)c(C(F)(F)F)c1

>  <CATEGORY>
0.0

$$$$
>  <MOLECULE>
O=S(=O)(F)Cc1ccccc1

>  <CATEGORY>
0.0

$$$$

q: # fetch the recorded call for C[C@]12COC(=O)C[C@@H]1CC[C@@H]1[C@H]2CC[C@@]2(C)[C@H]1CC[C@]2(C)O here
a: 0.0

q: # fetch the recorded call for C=C[C@@H]1CN2CCC1C[C@H]2[C@H](O)c1ccnc2ccccc12 (some centres not stated) here
a: 0.0

q: # fetch the recorded call for C[C@@H]1[C@@H](CC(C[C@H]2O[C@@H]3O[C@]4(C)CC[C@@H]5[C@H](C)CC[C@@H]([C@H]2C)[C@@]35OO4)C[S+](=O)([O-])c2ccc(COC(=O)N(C)C)cc2)O[C@@H]2O[C@]3(C)CC[C@H]4[C@H](C)CC[C@@H]1[C@@]24OO3 (some centres not stated) here
a: 1.0

----------
assay: Quantitative highthroughput screen to assess conditional lethalithy of SEM cells grown in Human Plasma-Like Medium with dialyzed fetal bovine serum (HPLM+ds) (AID 1963882); conditions: SEM B-ALL cells in HPLM+ds, CellTiter-Glo viability, 48 h; series mostly up to 45.8 µM; further: nearly all actives have a fitted effect of over 35% in size
Inconclusive results are not listed. Activity calls are given as the source filed them. The call rests on the fitted dose curve; in most records, active means well fitted cell-killing curve with a large enough effect; inconclusive means small, poorly fitted or top-dose-only effect, or effect the other way; inactive means no such curve, though single readings can be large or run the other way.
Respond with a class label; see 1.0 for active, 0.0 for inactive

A selection of reference data follows.
>  <COMPOUND>
CCc1c(C(=O)C(N)=O)c2c(OCC(=O)O)cccc2n1Cc1ccccc1

>  <CATEGORY>
0.0

$$$$
>  <COMPOUND>
COc1ccc(C(=O)c2c(C)n(CCN3CCOCC3)c3ccccc23)cc1

>  <CATEGORY>
0.0

$$$$
>  <COMPOUND>
Cc1[nH]nc2ccc(-c3cncc(OC[C@@H](N)Cc4c[nH]c5ccccc45)c3)cc12

>  <CATEGORY>
1.0

$$$$
>  <COMPOUND>
CC[C@@H]1[C@@H](C)O[C@@](O)([C@@H](C)[C@H](O)[C@H](C)[C@H]2OC(=O)C=CC=C[C@@H](C)[C@@H]([C@@H](C)[C@@H](O)[C@H](C)[C@@]3(O)C[C@H](O[C@H]4C[C@H](O)[C@H](O)[C@H](C)O4)[C@H](CC)[C@@H](C)O3)OC(=O)C=CC=C[C@@H]2C)C[C@H]1O[C@H]1C[C@H](O)[C@H](O)[C@H](C)O1

>  <CATEGORY>
1.0

$$$$
>  <COMPOUND>
C1=C2CCCN[C@H]2[C@@H]2C[C@H]1[C@@H]1CCCCN1C2

>  <CATEGORY>
0.0

$$$$

q: # fetch the recorded call for CCNC(=O)C[C@@H]1N=C(c2ccc(Cl)cc2)c2cc(OC)ccc2-n2c(C)nnc21 here
a: 1.0

q: # fetch the recorded call for CC(C)(C)[C@]1(O)C[C@@H]2OC(=O)C[C@@]23C(=O)O[C@@H]2OC(=O)[C@H](O)C213 (stereo partly drawn) here
a: 0.0

q: # fetch the recorded call for CC(=Cc1csc(C)n1)[C@@H]1C[C@H]2O[C@]2(C)CCC[C@H](C)[C@@H](O)[C@@H](C)C(=O)C(C)(C)[C@@H](O)CC(=O)O1 here
a: 0.0

----------
assay: Quantitative highthroughput screen to assess conditional lethalithy of SEM cells grown in RPMI1640 with dialyzed fetal bovine serum (RPMI+ds) (AID 1963884); details: SEM B-ALL cells, RPMI+dialyzed FBS, CellTiter-Glo viability, 48 h; series mostly up to 45.8 µM; further: nearly all actives have a fitted effect of over 35% in size;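 on viability: 100% = DMSO control wells and 0% = empty wells without cells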
Results filed as inconclusive are left out. Calls of active or inactive are those of the source. Calls come from the whole dose curve; as a rule, active = well fitted cell-killing curve with a large enough effect; inconclusive = small, poorly fitted or top-dose-only effect, or effect the other way; inactive = no such curve, though single readings can be large or run the other way.
Respond with a class label; see active, inactive

A selection of reference data follows.
>  <COMPOUND>
COc1ccc2c(c[n+](C)c3c4cc5c(cc4ccc23)OCO5)c1OC

>  <CATEGORY>
active

$$$$
>  <COMPOUND>
COc1ccc2c(c1OC)CN1CCc3cc4c(cc3C1C2)OCO4 (stereo not given)

>  <CATEGORY>
active

$$$$
>  <COMPOUND>
O=C1C=CC[C@@H]2[C@H]3CCCN4CCC[C@@H](CN12)[C@@H]34

>  <CATEGORY>
inactive

$$$$
>  <COMPOUND>
O=C(NCC1CCOCC1)c1cnc(Nc2ccc(Cl)cc2Cl)nc1C(F)(F)F

>  <CATEGORY>
inactive

$$$$
>  <COMPOUND>
Cc1cc(SCc2sc(-c3ccc(C(F)(F)F)c(F)c3)nc2C)ccc1OCC(=O)O

>  <CATEGORY>
inactive

$$$$
>  <COMPOUND>
CCC1(c2ccc(N)cc2)CCC(=O)NC1=O (stereo not given)

>  <CATEGORY>
inactive

$$$$
>  <COMPOUND>
O=c1cccc2n1CC1CNC[C@H]2C1

>  <CATEGORY>
inactive

$$$$
>  <COMPOUND>
C[C@H]([C@H](O)CCC(C)(C)O)[C@H]1CC[C@@]2(O)C3=CC(=O)[C@@H]4C[C@@H](O)[C@@H](O)C[C@]4(C)[C@@H]3CC[C@]12C

>  <CATEGORY>
inactive

$$$$
>  <COMPOUND>
O=C(O)CNC(=O)c1c(O)c2ccccc2n(Cc2ccccc2)c1=O

>  <CATEGORY>
inactive

$$$$
>  <COMPOUND>
CC(C)N(CCNC(=O)CN1CCCC1=O)C(C)C

>  <CATEGORY>
inactive

$$$$

Now look at this entry.
q: # fetch the recorded call for CCN1C[C@]2(OC(=O)c3ccccc3NC(C)=O)CC[C@H](OC)[C@@]34[C@H]5CC6[C@@H](OC)C[C@](O)(C(C[C@@H]23)[C@@H]14)[C@@]5(O)[C@@H]6OC here
a: inactive

----------
Entries and their activity (max response)
experiment: Cellular viability qHTS for adrenocortical cancer (ACC) cell line SW-13 (AID 1963989); details: SW-13 ACC cells viability, CellTiter-Glo, 48 h; hits give low values;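 further: cells grown in serum-free medium with ITS supplement; on the % scale 0 is the no-effect control and ±100 the full control effect; nearly all actives have a fitted effect of over 65% in size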
Inconclusive results are not listed.
A number alone suffices; assume %.

# example entries with known answers
>  <COMPOUND>
CCCC(C)(COC(N)=O)COC(=O)NC(C)C (configuration not stated)

>  <OBSERVED_VALUE>
8.8

$$$$
>  <COMPOUND>
O=C(Oc1ccc([N+](=O)[O-])cc1)N1CCC(C(O)(c2ccc3c(c2)OCO3)c2ccc3c(c2)OCO3)CC1

>  <OBSERVED_VALUE>
5.03

$$$$
>  <COMPOUND>
CC[N+]1(CCOC(=O)C(O)(c2ccccc2)c2ccccc2)CCCCC1

>  <OBSERVED_VALUE>
4.14

$$$$
>  <COMPOUND>
Nc1ccc([As](=O)(O)O)cc1

>  <OBSERVED_VALUE>
13.3

$$$$
>  <COMPOUND>
O=C(O)c1ccc(=O)[nH]c1

>  <OBSERVED_VALUE>
7.49

$$$$
>  <COMPOUND>
CCC(=O)O[C@H]1CC[C@H]2[C@@H]3CCC4=CC(=O)CC[C@]4(C)[C@H]3CC[C@]12C

>  <OBSERVED_VALUE>
-15

$$$$
>  <COMPOUND>
C[C@]12CC[C@H]3[C@@H](CC=C4C[C@@H](O)CC[C@@]43C)[C@@H]1CC[C@@H]2O

>  <OBSERVED_VALUE>
5.93

$$$$
>  <COMPOUND>
OC(O)C(Cl)(Cl)Cl

>  <OBSERVED_VALUE>
12.7

$$$$
>  <COMPOUND>
ClCCN1CCCC1

>  <OBSERVED_VALUE>
12.8

$$$$
>  <COMPOUND>
CCCC[N+]1(C)[C@@H]2CC(OC(=O)[C@H](CO)c3ccccc3)C[C@H]1[C@@H]1O[C@@H]12 (some centres not stated)

>  <OBSERVED_VALUE>
15.3

$$$$

Consider now this further compound.
q: Return value of activity (max response) for input Cc1ncsc1CCCl , no commentary.
a: 10.3

----------
experiment: Cellular viability qHTS for adrenocortical cancer (ACC) cell line NCI-H295R (AID 1963990); conditions: CellTiter-Glo ATP luminescence, 48 h; series mostly up to 46.1 µM; further: nearly all actives have a fitted effect of over 60% in size
Inconclusive results are not listed. The source made the active and inactive calls. The call rests on the fitted dose curve; in most records, active means well fitted cell-killing curve with a large enough effect; inconclusive means small, poorly fitted or top-dose-only effect; inactive means flat fitted curve, though single readings scatter.
Respond with a class label; see t = active, f = inactive

A selection of reference data follows.
>  <COMPOUND>
O=c1[nH]c2ccccc2n1C1CCNCC1

>  <CATEGORY>
f

$$$$
>  <COMPOUND>
COC1=C[C@@H]2[C@@H]3Cc4ccc(OC)c(O)c4[C@]2(CCN3C)CC1=O

>  <CATEGORY>
f

$$$$
>  <COMPOUND>
Oc1ccc2c3c1O[C@H]1[C@@H](O)C=C[C@H]4[C@@H](C2)NCC[C@@]341

>  <CATEGORY>
f

$$$$

q: # fetch the recorded call for Cn1c(CCCC(=O)O)nc2cc(N(CCCl)CCCl)ccc21 here
a: f

q: # fetch the recorded call for C[C@]12CC[C@H]3[C@@H](CCC4=CC(=O)CC[C@@]43C)[C@H]1CC[C@H]2OC(=O)CCC1CCCC1 here
a: f

q: # fetch the recorded call for C#CCOC(C(=O)OCCN(C)C)(c1ccccc1)c1ccccc1 here
a: f

q: # fetch the recorded call for CC1(C)CC[C@]2(NC(=O)C(C)(F)F)CC[C@]3(C)[C@H](C(=O)C=C4[C@@]5(C)C=C(C#N)C(=O)C(C)(C)[C@@H]5CC[C@]43C)[C@@H]2C1 here
a: t

q: # fetch the recorded call for CCN(CC)CCN1C(=O)CN=C(c2ccccc2F)c2cc(Cl)ccc21 here
a: f
